molecular target: HLA-B*08:01; experiment: IEDB peptide-MHC binding, purified MHC/competitive/radioactivity; filed as Kd, often an IC50 or EC50 that approximates it; bounds were set here for any values at or beyond the usual limits of such assays; conditions: source organism: Vaccinia virus Copenhagen
Readout Label: Kd (µM)
# unit: µM | format: bare number

Form: sequence = SIRSMSRSI ; Kd = 0.0772

---

target: HLA-A*68:02; assay: IEDB peptide-MHC binding, purified MHC/competitive/radioactivity; filed as Kd, often an IC50 or EC50 that approximates it; bounds were set here for any values at or beyond the usual limits of such assays; settings: source organism: Dengue virus 3 Singapore/8120/1995
Readout Label: Kd (nM)
# unit: nM | format: bare number

Form: sequence = MIAGVLFTFV ; Kd = 1.75

Just for reference, the Immune Epitope Database (IEDB) is where these values come from.
